Recorded values, source PubChem BioAssay (NCATS).

- Protocol: qHTS of pediatric cancer cell lines to identify multiple opportunities for drug repurposing: Primary screen for control Hh wild type fibroblast cells (AID 1347106);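 note: a drop in luminescence marks cytotoxicity and a rise apparent proliferation; nearly all actives have a fitted effect of over 55% in size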
- Measurement parameters: Hh wild-type fibroblast viability, CellTiter-Glo luminescence, 48 h; series mostly up to 46 µM
- Experimental: Drug repurposing or repositioning has been offered as a strategy for drug development in oncology programs. […] [1] Shen, M et al. Quantitative high-throughput phenotypic screening of pediatric cancer cell lines identifies multiple opportunities for drug repurposing. […] Cells were assayed in growth media at a density of 500-1,000 cells/well. […] After a 15 min incubation at room temperature, samples were analyzed for luminescence intensity using a ViewLux High-throughput CCD imager equipped with clear filters.
Results filed as inconclusive are left out. Active and inactive are the calls of the source. Calls come from the whole dose curve; as a rule, active = well fitted cell-killing curve with a large enough effect; inconclusive = small, poorly fitted or top-dose-only effect; inactive = flat fitted curve, though single readings scatter.
Outcomes you can answer with include only these: y for active, n for inactive

Compound	Assigned label
O=C1CCCC(=O)C1C(=O)c1ccc(C(F)(F)F)cc1[N+](=O)[O-]	n
O=C(CO)N1CCC(c2[nH]nc(-c3ccc(Cl)cc3)c2-c2ccncn2)CC1	n
NS(=O)(=O)c1ccc(Nc2nc(OCC3CCCCC3)c3[nH]cnc3n2)cc1	n
COc1ccnc(CS(=O)c2nc3ccc(OC(F)F)cc3[nH]2)c1OC (stereo unspecified)	n
COc1nccc(-c2c(-c3ccc(F)cc3)ncn2C2CCC(O)CC2)n1 (stereo unspecified)	n
C[C@H](CCC(=O)O)[C@H]1CC[C@H]2[C@H]3[C@@H](CC[C@]12C)[C@@]1(C)CC[C@@H](O)C[C@H]1C[C@@H]3O	n
CC[C@@H]([C@H](C)O)n1ncn(-c2ccc(N3CCN(c4ccc(OCC5CO[C@@](Cn6cncn6)(c6ccc(F)cc6F)C5)cc4)CC3)cc2)c1=O (stereo partly specified)	n
c1ccc(-c2oc3ncnc(NC[C@@H]4CCCO4)c3c2-c2ccccc2)cc1	n

q: Which outcome was assigned to CCc1cc(-c2n[nH]c(C)c2-c2ccc3c(c2)OCCO3)c(O)cc1O in this test?
a: n

q: Which outcome was assigned to CCCCC(F)(F)[C@@]1(O)CC[C@H]2[C@H](CC(=O)[C@@H]2CCCCCCC(=O)O)O1 in this test?
a: n

q: Which outcome was assigned to Cc1ccc(C(=O)N(CCCN)[C@@H](c2nc3cc(Cl)ccc3c(=O)n2Cc2ccccc2)C(C)C)cc1 in this test?
a: n

q: Which outcome was assigned to N#CC1(c2cccc(C(=O)Nc3cc(Oc4ccc5nc(NC(=O)C6CC6)sc5n4)ccc3F)c2Cl)CC1 in this test?
a: n

q: Which outcome was assigned to COC(=O)[C@H](c1ccccc1Cl)N1CCc2sccc2C1 in this test?
a: n

q: Which outcome was assigned to C=C1c2cccc(O)c2C(O)=C2C(=O)[C@@]3(O)C(O)=C(C(N)=O)C(=O)[C@@H](N(C)C)[C@@H]3[C@@H](O)[C@H]12 in this test?
a: n

q: Which outcome was assigned to CCOC(=O)N1CCN([N+]([O-])=NOc2cc(ON=[N+]([O-])N3CCN(C(=O)OCC)CC3)c([N+](=O)[O-])cc2[N+](=O)[O-])CC1 in this test?
a: n

q: Which outcome was assigned to COc1ccc(CCN(C)CCCOc2ccc(S(=O)(=O)c3[nH]c4ccccc4c3C(C)C)cc2)cc1OC in this test?
a: n

q: Which outcome was assigned to C[C@@H](N)c1ccc(C(=O)Nc2ccnc3[nH]ccc23)cc1 in this test?
a: n

q: Which outcome was assigned to COc1ccc(CCC(=O)Nc2nc3ccc(Cl)cc3s2)cc1OC in this test?
a: n

q: Which outcome was assigned to CCOC(=O)N1c2ccc(C(F)(F)F)cc2[C@@H](N(Cc2cc(C(F)(F)F)cc(C(F)(F)F)c2)C(=O)OC)C[C@H]1CC in this test?
a: n

q: Which outcome was assigned to O=C(Nc1cccc(Cl)c1)Nc1ncc(CCNc2ncnc3ccsc23)s1 in this test?
a: n

q: Which outcome was assigned to C[C@H](c1ccc(F)cc1CCCC(=O)O)N(c1cc(F)ccc1F)S(=O)(=O)c1ccc(Cl)cc1 in this test?
a: n

q: Which outcome was assigned to CCn1c(-c2nonc2N)nc2cncc(CNC3CCNCC3)c21 in this test?
a: n

q: Which outcome was assigned to C[C@@H]1C[C@H]2[C@@H]3CCC4=CC(=O)C=C[C@]4(C)[C@@]3(F)[C@@H](O)C[C@]2(C)[C@@]1(O)C(=O)CO in this test?
a: n
